# targetUnderTest: Human ENaC δ, β and γ subunit (Homo sapiens, UniProt P51168+P51170+P51172)
# Construct: expressed in transfected cells; host or cells: Xenopus laevis (African clawed frog) oocytes injected with cRNA
# testSummary: Measurement of ENaC activation potency (two electrode voltage clamp current in ENaC-expressing oocyte)
# Assay type: cell-based
# recordedConditions: lowest concentration increasing the current value by not less than 10% vs before addition
Measured MED value (minimum effective dose) by item
Only the number, expressed in µM, is required.

Query: MED value (minimum effective dose) for O=C(N[C@@H](Cc1c[nH]c2ccccc12)C(=O)O)c1c(O)cc(O)cc1O ?
Response: 3

Query: If you can, please state the reported MED value (minimum effective dose) value of O=C(NCCc1c[nH]c2ccccc12)c1c(O)cccc1O .
Response: 0.3

Query: Requested read-out: MED value (minimum effective dose). Entry: O=C(NC(Cc1c[nH]c2ccccc12)C(=O)O)c1cccc(O)c1O (stereo not drawn)
Response: 1

Query: Please give the measured MED value (minimum effective dose) for this compound: COC(=O)[C@H](Cc1c[nH]c2ccc(O)cc12)NC(=O)c1c(O)cccc1O
Response: 3

Query: Please look up its MED value (minimum effective dose): O=C(NCCc1c[nH]c2ccc(O)cc12)c1c(C(F)(F)F)cccc1C(F)(F)F
Response: 6

Query: Value lookup for MED value (minimum effective dose); key = CCOC(=O)[C@H](Cc1ccccc1)NC(=O)c1cc(Br)ccc1O
Response: 3

Continue with the compound presented below.
Query: What MED value (minimum effective dose) value was documented for this compound, CN(C(=O)CCc1ccccc1)[C@@H](Cc1ccccc1)C(=O)O ?
Response: 3

---

# targetUnderTest: Human ENaC δ, β and γ subunit (Homo sapiens, UniProt P51168+P51170+P51172)
# Construct: expressed in transfected cells; host or cells: Xenopus laevis (African clawed frog) oocytes injected with cRNA
# testSummary: Measurement of ENaC activation potency (two electrode voltage clamp current in ENaC-expressing oocyte)
# Type: cell-based
# recordedConditions: lowest concentration increasing the current value by not less than 10% vs before addition
parameterMeasured: MED value (minimum effective dose) (µM)
Respond numerically; units are µM and should not be typed.

Query: Request body: readout MED value (minimum effective dose), system Human ENaC δ, β and γ subunit (Homo sapiens, UniProt P51168+P51170+P51172), query O=C(N[C@@H](Cc1ccccc1)C(=O)O)c1c(O)cccc1O [Example 82] . Return the value.
Response: 1

Next:
Query: Any idea what MED value (minimum effective dose) came out for O=C(CCc1ccccc1)NC(C(=O)O)c1ccccc1 (stereo not drawn) [Example 79] on Human ENaC δ, β and γ subunit (Homo sapiens, UniProt P51168+P51170+P51172)?
Response: 10

---

# targetUnderTest: Human ENaC δ, β and γ subunit (Homo sapiens, UniProt P51168+P51170+P51172)
# Construct: expressed in transfected cells; host or cells: Xenopus laevis (African clawed frog) oocytes injected with cRNA
# testSummary: Measurement of ENaC activation potency (two electrode voltage clamp current in ENaC-expressing oocyte)
# Type: cell-based
# recordedConditions: lowest concentration increasing the current value by not less than 10% vs before addition
# Experimental: ENaC activation current value, namely, the inward current in ENaC-expressing oocyte was measured as follows. According to the method described in Motonao Nakamura, Takao Shimizu: Experiment of African clawed frog oocyte, Experimental Medicine Vol. 11, No. 3, 224-232 (1993), oocyte was collected from African clawed frog, […], and the current value was measured by a Two Electrode Voltage Clamp technique. […]
Hi, to clarify the labels: YES covers MED value (minimum effective dose) from 3 µM upward, NO covers anything below 3 µM.

Examples from the recorded data:
Query: Dear colleague, could you confirm whether O=C(CCc1ccccc1)N[C@@H](Cc1c[nH]c2ccc(O)cc12)C(=O)O [Example 74] has MED value (minimum effective dose) at or above 3 µM?
Response: YES

Query: Is reported MED value (minimum effective dose) greater than or equal to 3 µM here: COC(=O)[C@@H](Cc1c[nH]c2ccccc12)NC(=O)c1c(O)cccc1O [Example 2]
Response: NO

Query: Textbook exercise: given the entry COC(=O)[C@H](CCc1ccccc1)NC(=O)c1cc(Br)ccc1O [Example 98] , state whether its MED value (minimum effective dose) is greater than or equal to 3 µM.
Response: YES

More entries:
Query: Test whether the compound O=C(N[C@@H](Cc1ccccc1)C(=O)O)c1c(O)cc(O)cc1O [Example 123] records MED value (minimum effective dose) of 3 µM or higher.
Response: YES

Query: Does the reported MED value (minimum effective dose) for CC(C)(C)OC(=O)N[C@@H](Cc1c[nH]c2ccccc12)C(=O)Nc1c(O)cccc1O [Example 20] fall at or above the 3 µM mark?
Response: YES

Query: For this compound, is measured MED value (minimum effective dose) 3 µM or higher? O=C(N[C@@H](Cc1c[nH]c2ccccc12)C(=O)OCc1ccccc1)c1c(O)cccc1O [Example 15]
Response: YES

Query: For this compound, is measured MED value (minimum effective dose) 3 µM or higher? O=C(N[C@H](CO)Cc1c[nH]c2ccccc12)c1c(O)cccc1O [Example 14]
Response: NO

Query: Does MED value (minimum effective dose) meet or surpass 3 µM for Cc1cc(O)c(C(=O)N[C@@H](Cc2c[nH]c3ccccc23)C(=O)O)c(O)c1 [Example 113] ?
Response: NO

Query: MED value (minimum effective dose) >= 3 µM for Cc1cc(O)c(C(=O)N[C@@H](CCc2ccccc2)C(=O)O)c(O)c1 [Example 117] ?
Response: NO

---

# targetUnderTest: Human ENaC δ, β and γ subunit (Homo sapiens, UniProt P51168+P51170+P51172)
# Construct: expressed in transfected cells; host or cells: Xenopus laevis (African clawed frog) oocytes injected with cRNA
# Sequence (P51172 1-638 isoform P51172-1): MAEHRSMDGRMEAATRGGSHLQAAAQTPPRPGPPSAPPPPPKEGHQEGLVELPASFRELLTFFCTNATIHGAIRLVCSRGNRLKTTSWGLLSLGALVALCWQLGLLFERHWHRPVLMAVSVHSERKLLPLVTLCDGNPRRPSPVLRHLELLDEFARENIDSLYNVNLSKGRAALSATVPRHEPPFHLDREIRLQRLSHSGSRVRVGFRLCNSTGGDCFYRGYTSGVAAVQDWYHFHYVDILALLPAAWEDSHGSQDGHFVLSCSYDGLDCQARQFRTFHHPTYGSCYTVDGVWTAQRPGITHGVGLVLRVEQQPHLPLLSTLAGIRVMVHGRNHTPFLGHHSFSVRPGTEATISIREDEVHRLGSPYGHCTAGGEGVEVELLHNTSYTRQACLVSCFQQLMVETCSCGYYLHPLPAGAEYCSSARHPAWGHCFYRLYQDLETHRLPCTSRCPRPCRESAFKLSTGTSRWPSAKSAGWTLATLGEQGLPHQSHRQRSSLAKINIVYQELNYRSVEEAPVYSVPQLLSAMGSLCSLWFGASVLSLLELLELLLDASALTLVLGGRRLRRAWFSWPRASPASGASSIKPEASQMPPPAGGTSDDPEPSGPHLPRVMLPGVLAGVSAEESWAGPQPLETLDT
# Sequence (P51168 1-640): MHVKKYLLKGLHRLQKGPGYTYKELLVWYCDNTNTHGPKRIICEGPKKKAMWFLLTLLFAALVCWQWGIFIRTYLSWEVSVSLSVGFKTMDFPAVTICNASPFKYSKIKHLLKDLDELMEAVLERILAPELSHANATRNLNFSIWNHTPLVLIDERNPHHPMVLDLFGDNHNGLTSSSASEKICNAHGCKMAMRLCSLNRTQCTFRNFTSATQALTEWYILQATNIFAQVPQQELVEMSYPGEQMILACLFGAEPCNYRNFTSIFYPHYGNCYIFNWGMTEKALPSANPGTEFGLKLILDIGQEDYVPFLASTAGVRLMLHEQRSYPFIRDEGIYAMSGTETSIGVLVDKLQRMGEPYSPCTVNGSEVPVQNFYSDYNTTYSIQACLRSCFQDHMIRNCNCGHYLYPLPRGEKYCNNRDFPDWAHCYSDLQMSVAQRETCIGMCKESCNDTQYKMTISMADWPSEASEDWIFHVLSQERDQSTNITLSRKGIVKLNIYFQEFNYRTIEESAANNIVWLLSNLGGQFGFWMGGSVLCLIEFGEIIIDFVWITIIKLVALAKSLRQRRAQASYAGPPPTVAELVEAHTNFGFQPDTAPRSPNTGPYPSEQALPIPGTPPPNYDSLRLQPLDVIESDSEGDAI
# Sequence (P51170 1-649): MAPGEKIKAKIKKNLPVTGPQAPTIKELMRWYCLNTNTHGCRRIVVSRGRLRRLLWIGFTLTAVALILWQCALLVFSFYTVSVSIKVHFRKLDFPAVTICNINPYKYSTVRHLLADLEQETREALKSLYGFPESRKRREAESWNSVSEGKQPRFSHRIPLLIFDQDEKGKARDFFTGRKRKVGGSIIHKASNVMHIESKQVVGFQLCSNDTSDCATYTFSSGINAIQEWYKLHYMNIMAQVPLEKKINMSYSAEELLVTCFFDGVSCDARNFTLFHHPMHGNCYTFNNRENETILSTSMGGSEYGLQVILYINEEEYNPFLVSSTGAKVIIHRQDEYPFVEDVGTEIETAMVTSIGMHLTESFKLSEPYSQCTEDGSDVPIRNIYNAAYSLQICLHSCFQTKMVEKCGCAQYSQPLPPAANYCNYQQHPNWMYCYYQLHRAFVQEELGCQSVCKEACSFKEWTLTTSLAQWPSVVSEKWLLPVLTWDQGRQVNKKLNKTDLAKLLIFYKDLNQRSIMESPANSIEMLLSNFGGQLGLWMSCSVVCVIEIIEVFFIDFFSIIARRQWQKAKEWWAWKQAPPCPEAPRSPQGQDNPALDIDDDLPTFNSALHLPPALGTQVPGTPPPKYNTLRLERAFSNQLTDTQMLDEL
# testSummary: Measurement of ENaC activation potency (two electrode voltage clamp current in ENaC-expressing oocyte)
# Type: cell-based
# recordedConditions: lowest concentration increasing the current value by not less than 10% vs before addition
parameterMeasured: MED value (minimum effective dose) (µM)
// note: answer is a bare numeric in µM

Solved entries:
Query: Report MED value (minimum effective dose) for N[C@@H](CCc1ccccc1)C(=O)Nc1c(O)cccc1O please.
Response: 3

Query: Which MED value (minimum effective dose) is listed for Cc1cc(O)c(C(=O)N[C@@H](Cc2ccccc2)C(=O)O)c(O)c1 ?
Response: 0.3

Query: Which MED value (minimum effective dose) value belongs to COC(=O)[C@H](Cc1c[nH]c2ccccc12)NC(=O)c1c(O)cc(O)cc1O ?
Response: 0.3

Query: Which MED value (minimum effective dose) reading was recorded for the compound O=C(N[C@@H](Cc1c[nH]c2ccc(O)cc12)C(=O)O)c1c(O)cccc1O ?
Response: 3

Query: Query (compound): COC(=O)[C@H](Cc1c[nH]c2ccccc12)NC(=O)c1c(O)cccc1O ; field requested: MED value (minimum effective dose)
Response: 0.6

Here is another compound to look at.
Query: Sample COC(=O)[C@H](Cc1c[nH]c2ccccc12)NC(=O)c1c(O)cc(C)cc1O — what was its MED value (minimum effective dose)?
Response: 1
